# Tested System: Factor XIa (Homo sapiens (Human), UniProt P03951)
# Sequence (P03951 388-625): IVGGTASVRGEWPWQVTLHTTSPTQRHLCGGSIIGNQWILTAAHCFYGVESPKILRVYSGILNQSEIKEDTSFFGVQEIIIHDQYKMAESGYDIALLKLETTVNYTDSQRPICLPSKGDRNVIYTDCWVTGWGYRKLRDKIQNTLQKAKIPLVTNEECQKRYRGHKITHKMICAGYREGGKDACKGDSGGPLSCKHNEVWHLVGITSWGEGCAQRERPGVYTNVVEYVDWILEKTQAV
# Sequence (P03951 19-387 partner): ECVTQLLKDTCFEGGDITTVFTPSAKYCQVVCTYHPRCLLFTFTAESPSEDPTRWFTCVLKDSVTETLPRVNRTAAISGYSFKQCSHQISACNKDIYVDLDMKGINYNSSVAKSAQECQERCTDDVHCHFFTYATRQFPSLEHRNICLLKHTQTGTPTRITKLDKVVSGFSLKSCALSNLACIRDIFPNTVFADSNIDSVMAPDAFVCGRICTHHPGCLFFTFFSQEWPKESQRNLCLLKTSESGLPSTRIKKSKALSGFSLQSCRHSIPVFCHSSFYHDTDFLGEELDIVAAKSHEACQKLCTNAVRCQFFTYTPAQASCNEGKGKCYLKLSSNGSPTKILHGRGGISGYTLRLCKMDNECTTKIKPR
# Test Name: Factor XIa inhibition assay (FLINT) utilizing a fluorophore-quencher pair peptide substrate
# Format: biochemical
# Measurement Parameters: 30 min preincubation, kinetic reads over 30 min, 5Fam-KLTRAETV-K5Tamra substrate 15 μM; read-out: FXIa Kin Inh IC50
Metric Name: IC50 (nM)

molecule="COC(=O)Nc1ccc(-c2cnc([C@@H]3CCC4CC(c5c(-n6cnnn6)ccc(Cl)c5F)=CC(=O)N43)[nH]2)cc1 (stereo partly drawn)" metric_name=IC50 result_value=0.2
molecule="O=C1C=C(c2c(-n3cnnn3)ccc(Cl)c2F)C[C@H]2CC[C@@H](c3ncc(-c4ccnc(CO)c4F)[nH]3)N12 (single isomer, unassigned) [Example 194]" metric_name=IC50 result_value=2.2
molecule="O=C1C=C(c2c(-n3cnnn3)ccc(Cl)c2F)C[C@H]2CC[C@@H](c3ncc(-c4ccnc5[nH]ccc45)[nH]3)N12 (single isomer, unassigned)" metric_name=IC50 result_value=0.1
molecule=NC(=O)c1ncc(-c2c[nH]c([C@@H]3CC[C@@H]4CC(c5c(-n6cnnn6)ccc(Cl)c5F)=CC(=O)N43)n2)s1 metric_name=IC50 result_value=3.3
molecule=CS(=O)(=O)Nc1nccc(-c2cnc([C@@H]3CC[C@@H]4CC(c5c(-n6cnnn6)ccc(Cl)c5F)=CC(=O)N43)[nH]2)c1F metric_name=IC50 result_value=0.4

a. O=C1C=C(c2c(-n3cnnn3)ccc(Cl)c2F)CC2CC[C@@H](c3nc(-c4nc[nH]n4)c[nH]3)N12 (stereo partly drawn)
b. COCc1nccc(-c2c[nH]c([C@@H]3CCC4CC(c5c(-n6cnnn6)ccc(Cl)c5F)=CC(=O)N43)n2)c1F (stereo partly drawn)
Exercise: Given a and b , report the one with the higher recorded IC50. Kindly state the label of the option you pick.
Solution: a
(a: 347 nM, b: 3.1 nM)

A. O=C(c1nccc(-c2cnc([C@@H]3CC[C@@H]4CC(c5c(-n6cnnn6)ccc(Cl)c5F)=CC(=O)N43)[nH]2)c1F)N1CC(F)(F)C1
B. O=C1C=C(c2c(-n3cnnn3)ccc(Cl)c2F)C[C@H]2CC[C@@H](c3nc(-c4ccnc(-c5ccn[nH]5)c4F)c[nH]3)N12 (single isomer, unassigned)
Exercise: Input pair: A , B . Output: entry with lower IC50. Kindly state the label of the option you pick.
Solution: B
(B: 1.5 nM, A: 12.3 nM)

----------
# Tested System: Factor XIa (Homo sapiens (Human))
# Test Name: Factor XIa inhibition assay (FLINT) utilizing a fluorophore-quencher pair peptide substrate
# Assay type: biochemical
# Measurement Parameters: 30 min preincubation, kinetic reads over 30 min, 5Fam-KLTRAETV-K5Tamra substrate 15 μM; read-out: FXIa Kin Inh IC50
pIC50: −log10 of the molar value.
Metric Name: pIC50

compound=O=C1C=C(c2c(-n3cc(Cl)nn3)ccc(Cl)c2F)C[C@H]2CC[C@@H](c3nc(-c4cc[nH]c(=O)c4F)c[nH]3)N12 tested_system="Factor XIa (Homo sapiens (Human))" metric_name=pIC50 result_value=8.36

1. CC(=O)Nc1cnc(C(F)(F)F)cc1-c1cnc([C@@H]2CC[C@@H]3CC(c4c(-n5cnnn5)ccc(Cl)c4F)=CC(=O)N32)[nH]1
2. C[C@H]1C[C@@H](c2ncc(-c3ccc(N)nc3F)[nH]2)N2C(=O)C=C(c3c(-n4cnnn4)ccc(Cl)c3F)C[C@@H]12 (single isomer, unassigned)
Exercise: Input pair: 1 , 2 . Output: entry with lower pIC50. Kindly state the label of the option you pick.
Solution: 1
(1: 7.11, 2: 8.89)

a. NC(=O)c1cc(-c2c[nH]c([C@@H]3CCC4CC(c5c(-n6cnnn6)ccc(Cl)c5F)=CC(=O)N43)n2)cs1 (stereo partly shown)
b. O=C1C=C(c2c(-n3cnnn3)ccc(Cl)c2F)C[C@H]2CCC(c3ncc(-c4n[nH]cc4Cl)[nH]3)N12 (stereo partly shown)
c. [2H]c1cc(-c2c[nH]c([C@@H]3CC[C@@H]4CC(c5c(F)c(Cl)cc([2H])c5-n5cnnn5)=CC(=O)N43)n2)c(F)nc1N
d. Nc1ccc(-c2cnc([C@@H]3CC[C@@H]4CC(c5c(-n6cnnn6)ccc(Cl)c5F)=CC(=O)N43)[nH]2)c(Cl)n1
e. CCN(CCO)c1nccc(-c2cnc([C@@H]3CC[C@H]4CC(c5c(-n6cnnn6)ccc(Cl)c5F)=CC(=O)N43)[nH]2)c1F (single isomer, unassigned)
Exercise: Form: Sort by [pIC50] Order [ ascending ] Response format: the labels, sorted as the prompt asks.
Solution: b, e, a, c, d
(b: 7.04, e: 7.65, a: 8.68, c: 9.30, d: 9.70)

a. COc1ccc(-c2c[nH]c([C@@H]3CC[C@@H]4CC(c5c(-n6cnnn6)ccc(Cl)c5F)=CC(=O)N43)n2)c(NC(=O)C2CC2)c1
b. Nc1cc(-c2cnc([C@@H]3CC[C@@H]4CC(c5c(-n6cnnn6)ccc(Cl)c5F)=CC(=O)N43)[nH]2)ccn1
Exercise: Input pair: a , b . Output: entry with lower pIC50. Kindly state the label of the option you pick.
Solution: b

a. O=C1C=C(c2c(-n3cnnn3)ccc(Cl)c2F)C[C@H]2CC[C@@H](c3nc(F)c(-c4ccnc(-n5nccn5)c4)[nH]3)N12
b. C[C@@H]1C[C@@H](c2ncc(-c3ccc(N)nc3F)[nH]2)N2C(=O)C=C(c3c(-n4cnnn4)ccc(Cl)c3F)C[C@H]12 (single isomer, unassigned)
Exercise: Input pair: a , b . Output: entry with lower pIC50. Kindly state the label of the option you pick.
Solution: b
(b: 8.59, a: 9.05)

A. NC(=O)c1ccc(-c2cnc([C@@H]3CC[C@@H]4CC(c5c(-n6cnnn6)ccc(Cl)c5F)=CC(=O)N43)[nH]2)cn1 (single isomer, unassigned)
B. O=C(O)c1nccc(-c2cnc([C@@H]3CC[C@@H]4CC(c5c(-n6cnnn6)ccc(Cl)c5F)=CC(=O)N43)[nH]2)c1F
Exercise: Given A and B , report the one with the higher recorded pIC50. Kindly state the label of the option you pick.
Solution: B
(B: 9.40, A: 8.59)
